- method-summary: Ratio of drug level in brain to plasma in Sprague-Dawley rat at 1 mg/kg, iv and 5 mg/kg, po
- Format: ADME, organism-based
- settings: read-out: BPR
measure-name: Kp

* C[C@H](NC(=O)CNC(=O)c1cccc(Cl)c1)c1ccccc1 | 1.2

----------
Below: a set of entries, each annotated with reported log10(EC50).
- system: Probable G-protein coupled receptor 139 (Homo sapiens, UniProt Q6DWJ6)
- Sequence (Q6DWJ6 whole entry): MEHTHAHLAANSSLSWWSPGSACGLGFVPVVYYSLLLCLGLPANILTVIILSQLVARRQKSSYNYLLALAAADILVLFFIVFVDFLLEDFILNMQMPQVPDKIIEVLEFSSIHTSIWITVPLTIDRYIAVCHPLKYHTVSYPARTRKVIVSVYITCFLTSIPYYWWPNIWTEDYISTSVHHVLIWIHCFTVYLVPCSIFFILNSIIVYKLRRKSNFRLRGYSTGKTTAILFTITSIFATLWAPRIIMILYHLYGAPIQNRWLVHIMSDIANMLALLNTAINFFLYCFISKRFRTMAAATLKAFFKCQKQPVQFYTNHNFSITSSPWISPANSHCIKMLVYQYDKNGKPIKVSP
- method-summary: Agonist activity at human GPR139 receptor expressed in HEK293 cells assessed as calcium mobilization by FLIPR assay
measure-name: log10(EC50) (log10 of the value in nM)

* COc1cccc(C(=O)NCC(=O)N[C@H](C)c2ccccc2)c1 | 3.23
* C[C@H](NC(=O)CNC(=O)c1cc(F)cc(Cl)c1)c1ccccc1 | 1.38
* CC(NC(=O)CSC(=O)c1ccccc1)c1ccccc1 (stereo not given) | 2.83
* COc1cccc(C(=O)N[C@@H](CO)C(=O)N[C@@H](C)c2ccccc2)c1 | 2.45
* C[C@H](NC(=O)CNC(=O)c1cccc(F)c1)c1ccccc1 | 1.73
* C[C@H](NC(=O)CNC(=O)c1cc(Cl)cc(Cl)c1)c1ccccc1 | 1.66
* C[C@@H](NC(=O)CNC(=O)c1cccc(Cl)c1)c1ccccc1 | 3.32
* C[C@H](NC(=O)CNC(=O)c1cccc(Cl)c1Cl)c1ccccc1 | 1.72
* Cc1cccc(C(=O)NCC(=O)N[C@@H](C)c2ccccc2)c1 | 1.38

----------
- method-summary: Fraction unbound in human plasma at 0.1 to 10 uM after 6 hrs by LC-MS/MS analysis
- Type: ADME, cell-free
Below: a set of entries, each annotated with reported fraction unbound at 6 h, up to 10 µM.
measure-name: fraction unbound at 6 h, up to 10 µM

- COc1cccc(C(=O)NCC(=O)N[C@@H](C)c2ccccc2)c1: 0.14
- C[C@H](NC(=O)CNC(=O)c1cccc(Cl)c1)c1ccccc1: 0.1

----------
- method-summary: Cmax in Sprague-Dawley rat at 5 mg/kg, po
- Format: ADME, organism-based
- Parameters: dose 5 mg/kg, route oral
- settings: in vivo
measure-name: Cmax (ng/mL)

- C[C@H](NC(=O)CNC(=O)c1cccc(Cl)c1)c1ccccc1: 317

----------
- method-summary: Fraction unbound in rat brain at 0.1 to 10 uM after 6 hrs by LC-MS/MS analysis
- Type: ADME, tissue-based
Below: a set of entries, each annotated with reported fraction unbound at 6 h, up to 10 µM.
measure-name: fraction unbound at 6 h, up to 10 µM

• COc1cccc(C(=O)NCC(=O)N[C@@H](C)c2ccccc2)c1 = 0.16
• C[C@H](NC(=O)CNC(=O)c1cccc(Cl)c1)c1ccccc1 = 0.09

----------
- method-summary: Fraction unbound in rat plasma at 0.1 to 10 uM after 6 hrs by LC-MS/MS analysis
- Type: ADME, cell-free
Below: a set of entries, each annotated with reported fraction unbound at 6 h, up to 10 µM.
measure-name: fraction unbound at 6 h, up to 10 µM

- C[C@H](NC(=O)CNC(=O)c1cccc(Cl)c1)c1ccccc1: 0.25
- COc1cccc(C(=O)NCC(=O)N[C@@H](C)c2ccccc2)c1: 0.36

----------
- method-summary: AUC in Sprague-Dawley rat at 1 mg/kg, iv and 5 mg/kg, po
- Assay type: ADME, organism-based
- settings: in vivo
measure-name: AUC

* C[C@H](NC(=O)CNC(=O)c1cccc(Cl)c1)c1ccccc1 | 683 ng·h/mL

----------
Below: a set of entries, each annotated with reported pEC50.
- system: Probable G-protein coupled receptor 139 (Homo sapiens, UniProt Q6DWJ6)
- method-summary: Agonist activity at human GPR139 receptor expressed in HEK293 cells assessed as calcium mobilization by FLIPR assay
pEC50: −log10 of the molar value.
measure-name: pEC50

- COc1cccc(C(=O)N[C@@H](C)C(=O)N[C@@H](C)c2ccccc2)c1: 7.18
- C[C@H](NC(=O)CNC(=O)c1ccc(Cl)cc1)c1ccccc1: 6.93
- C[C@H](NC(=O)CNC(=O)c1ccc(Cl)c(Cl)c1)c1ccccc1: 6.71
- COc1cccc(C(=O)N[C@@H](Cc2ccccc2)C(=O)N[C@@H](C)c2ccccc2)c1: 5.00
- COc1cc(OC)cc(C(=O)NCC(=O)N[C@@H](C)c2ccccc2)c1: 7.49

----------
- method-summary: Efflux ratio of apparent permeability from basolateral to apical side to apical to basolateral side in MDCK cells
- Format: ADME, cell-based, Canis lupus familiaris
- settings: dog
Below: a set of entries, each annotated with reported efflux ratio.
measure-name: efflux ratio

• C[C@H](NC(=O)CNC(=O)c1cccc(Cl)c1)c1ccccc1 = 1.7
• COc1cccc(C(=O)NCC(=O)N[C@@H](C)c2ccccc2)c1 = 5.5

----------
- method-summary: Half life in Sprague-Dawley rat at 1 mg/kg, iv
- Format: ADME, organism-based
- settings: in vivo
measure-name: half-life (h)

* C[C@H](NC(=O)CNC(=O)c1cccc(Cl)c1)c1ccccc1 | 2.5

----------
- method-summary: Extraction ratio in human liver microsomes at 1 uM after 1 hr by LC-MS/MS analysis
- Format: ADME
- settings: read-out: ERH
Below: a set of entries, each annotated with reported hepatic extraction ratio at 1 h, 1 µM.
measure-name: hepatic extraction ratio at 1 h, 1 µM

- COc1cccc(C(=O)NCC(=O)N[C@@H](C)c2ccccc2)c1: 0.3
- C[C@H](NC(=O)CNC(=O)c1cccc(Cl)c1)c1ccccc1: 0.3

----------
- method-summary: Apparent permeability of the compound in MDCK cells
- Type: ADME, cell-based, Canis lupus familiaris
- settings: dog
Below: a set of entries, each annotated with reported Papp.
measure-name: Papp (×10⁻⁶ cm/s)

• C[C@H](NC(=O)CNC(=O)c1cccc(Cl)c1)c1ccccc1 = 32
• COc1cccc(C(=O)NCC(=O)N[C@@H](C)c2ccccc2)c1 = 16

----------
Below: a set of entries, each annotated with reported solubility at 72 h.
- method-summary: Aqueous solubility of the compound in 30 mM phosphate buffer at pH 7 after 3 days
- Format: physicochemical
measure-name: solubility at 72 h

* C[C@H](NC(=O)CNC(=O)c1cccc(Cl)c1)c1ccccc1 | > 35 µM
* COc1cccc(C(=O)NCC(=O)N[C@@H](C)c2ccccc2)c1 | > 35 µM

----------
- system: Probable G-protein coupled receptor 139 (Homo sapiens)
- method-summary: Agonist activity at human GPR139 receptor expressed in HEK293 cells assessed as calcium mobilization by FLIPR assay
measure-name: EC50 (nM)

• COc1cc(OC)cc(C(=O)NNC(=O)Nc2cccc3ccccc23)c1 = 43
• COc1cccc(C(=O)NCC(=O)N[C@@H](C)c2ccccc2)c1 = 33
• C[C@H](NC(=O)CNC(=O)c1cc(Cl)ccc1Cl)c1ccccc1 = 40
• C[C@H](NC(=O)CNC(=O)c1ccccc1)c1ccccc1 = 162
• C[C@H](NC(=O)CNC(=O)c1cccc(OC(F)(F)F)c1)c1ccccc1 = 46
• COc1cccc(C(=O)N[C@H](C)C(=O)N[C@@H](C)c2ccccc2)c1 = 440
• C[C@H](NC(=O)CNC(=O)c1cccc(C#N)c1)c1ccccc1 = 59
• C[C@H](NC(=O)CNC(=O)c1cc(Cl)cc(Br)c1)c1ccccc1 = 78
• C[C@H](NC(=O)CNC(=O)c1cccc(C(F)(F)F)c1)c1ccccc1 = 52
• C[C@H](NC(=O)CNC(=O)c1ccccc1Cl)c1ccccc1 = 150
